# Test system: Pseudomonas aeruginosa PAM 1723 strain highly expressing the drug efflux pump
# test.details: Effect of combined use with antimicrobial agent (levofloxacin, aztreonam) on multidrug resistant Pseudomonas aeruginosa
# Format: cell-based
# setup.conditions: minimum concentration of test compound required to enhance antibacterial activity of levofloxacin applied at 1/8 or less of MIC, 18 hours, MHB
endpoint: MPC8 LVFX

Ask: Any idea what MPC8 LVFX was measured for CC(C)c1csc(/C=C/c2ccn3c(=O)c(/C=C/c4nnn[nH]4)c(N4CCCC(O)C4)nc3c2)n1 (stereo not shown) ?
Reply: 1 µg/mL

Ask: Any idea what MPC8 LVFX was measured for CC(C)c1csc(CCc2ccn3c(=O)c(/C=C/C(=O)O)c(SCC(N)=O)nc3c2)n1 ?
Reply: 8 µg/mL

Ask: Any idea what MPC8 LVFX was measured for CC(C)c1csc(CCc2ccn3c(=O)c(/C=C/C(=O)O)c(-c4ccncc4)nc3c2)n1 ?
Reply: 8 µg/mL

Ask: Any idea what MPC8 LVFX was measured for CC(C)c1csc(/C=C/c2ccn3c(=O)c(/C=C/C(=O)O)c(N4CCN(C(=O)[C@@H](N)CCCNC(=N)N)CC4)nc3c2)n1 ?
Reply: 1 µg/mL

Ask: Any idea what MPC8 LVFX was measured for CC(C)c1csc(CCc2ccn3c(=O)c(/C=C(\F)C(=O)O)c(N4CCOCC4)nc3c2)n1 ?
Reply: 16 µg/mL

Ask: Any idea what MPC8 LVFX was measured for CC(C)c1csc(COc2ccn3c(=O)c(/C=C/C(=O)O)c(N4CCCC(O)C4)nc3c2)n1 (stereo not shown) ?
Reply: 8 µg/mL

Ask: Any idea what MPC8 LVFX was measured for CC(C)(C)c1csc(NC(=O)c2ccn3c(=O)c(-c4nnn[nH]4)cnc3c2)n1 ?
Reply: 16 µg/mL
